Consider the following molecules and their measured log10(Ki) readings.
assay target: Protease (Human immunodeficiency virus 1, UniProt Q9YQ12)
Sequence (Q9YQ12 whole entry): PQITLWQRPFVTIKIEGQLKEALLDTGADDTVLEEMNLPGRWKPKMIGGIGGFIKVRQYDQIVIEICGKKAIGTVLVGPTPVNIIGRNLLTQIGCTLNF
assay procedure: Inhibition of HIV1 protease dimerization by Zhang-Poorman kinetic assay
Non-standard residues stand in square brackets, D forms with d. Residues, ends and D or L forms follow the SMILES beside them. *: point of attachment. C16 diacid = O=C(O)CCCCCCCCCCCCCCC(=O)*; aThr = C[C@H](O)[C@H](N)C(=O)O
readout kind: log10(Ki) (log10 of the value in µM)

molecule	assay target	log10(Ki)
CC(C)C[C@H](NC(=O)[C@H](CSCCOCCOCCSC[C@H](NC(=O)CCCCC1CCCCC1)C(=O)N[C@@H](Cc1ccccc1)C(=O)O)NC(=O)CCCCC1CCCCC1)C(=O)N[C@@H](Cc1ccccc1)C(N)=O	Protease (Human immunodeficiency virus 1, UniProt Q9YQ12)	1.94
CCCCCC(=O)N[C@@H](CSCCOCCOCCSC[C@H](NC(=O)CCCCC)C(=O)N[C@@H](CC(C)C)C(=O)N[C@@H](Cc1ccccc1)C(N)=O)C(=O)N[C@@H](Cc1ccccc1)C(=O)O	Protease (Human immunodeficiency virus 1, UniProt Q9YQ12)	0.36
CCCCC(=O)N[C@@H](CSCCOCCOCCSC[C@H](NC(=O)CCCC)C(=O)N[C@@H](CC(C)C)C(=O)N[C@@H](Cc1ccccc1)C(N)=O)C(=O)N[C@@H](Cc1ccccc1)C(=O)O	Protease (Human immunodeficiency virus 1, UniProt Q9YQ12)	0.83
CCCCCCC(=O)N[C@@H](CSCCOCCOCCSC[C@H](NC(=O)CCCCCC)C(=O)N[C@@H](CC(C)C)C(=O)N[C@@H](Cc1ccccc1)C(N)=O)C(=O)N[C@@H](Cc1ccccc1)C(=O)O	Protease (Human immunodeficiency virus 1, UniProt Q9YQ12)	0.11
CC(C)C[C@H](NC(=O)[C@@H](NC(=O)CCCCCCCCCCCCCCC(=O)N[C@@H](CC(N)=O)C(=O)N[C@@H](Cc1ccccc1)C(=O)O)[C@H](C)O)C(=O)N[C@@H](Cc1ccccc1)C(N)=O ({Phe-Asn-C16 diacid}-[aThr]-Leu-Phe-NH2)	Protease (Human immunodeficiency virus 1, UniProt Q9YQ12)	0.48
